target: Aurora kinase A (Homo sapiens, UniProt O14965)
Sequence (O14965 whole entry): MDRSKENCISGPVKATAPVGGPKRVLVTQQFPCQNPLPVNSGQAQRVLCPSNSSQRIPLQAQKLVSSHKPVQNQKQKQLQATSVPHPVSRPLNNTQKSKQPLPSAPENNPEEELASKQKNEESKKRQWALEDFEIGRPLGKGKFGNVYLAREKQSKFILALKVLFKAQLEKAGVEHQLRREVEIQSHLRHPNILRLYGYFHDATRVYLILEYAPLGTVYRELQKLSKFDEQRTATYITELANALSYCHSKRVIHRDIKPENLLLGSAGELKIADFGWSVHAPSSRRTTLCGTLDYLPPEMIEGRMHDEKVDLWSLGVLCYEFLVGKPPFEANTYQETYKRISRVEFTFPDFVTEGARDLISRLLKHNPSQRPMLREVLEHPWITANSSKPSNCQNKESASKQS
pIC50: −log10 of the molar value.
Param threshold (6) applies to pIC50; output TRUE when value >= threshold, FALSE when value < threshold.

> print(dat)
                                 smiles.repr    cat
 1  Nc1nc(NC2CCCC2)cc(-c2ccc3c(N)n[nH]c3c2)n1  FALSE
 2  Nc1nc(-c2ccc3c(N)[nH]nc3c2)cc(N2CCOCC2)n1  FALSE
 3  CNc1nc(-c2ccc3c(N)n[nH]c3c2)cc(N2C[C@@H](C(=O)NC3CCCCC3)OC[C@H]2C)n1  FALSE
 4       COc1cc(-c2ccc3c(N)n[nH]c3c2)nc(N)n1  FALSE
 5  C[C@@H]1C[C@@H](NC(=O)OC(C)(C)C)CN(c2cc(-c3ccc4c(N)[nH]nc4c3)nc(N)n2)C1   TRUE
 6  Nc1nc(-c2ccc3c(N)n[nH]c3c2)cc(N2CCC[C@@H](C(=O)Nc3ccccc3)C2)n1  FALSE
 7  C[C@@H]1CO[C@H](C(=O)Nc2ccccc2)CN1c1cc(-c2ccc3c(N)n[nH]c3c2)nc(N)n1   TRUE
 8  Nc1nc(-c2ccccc2)cc(-c2ccc3c(N)n[nH]c3c2)n1  FALSE
 9           Nc1nccc(-c2ccc3c(N)n[nH]c3c2)n1   TRUE
10  Nc1nc(-c2ccc3c(N)n[nH]c3c2)cc(N2CCCCC2)n1  FALSE
11   CC(C)Nc1cc(-c2ccc3c(N)n[nH]c3c2)nc(N)n1  FALSE
12  CC(C)[C@@H]1COCCN1c1cc(-c2ccc3c(N)n[nH]c3c2)nc(N)n1  FALSE
13  C[C@@H]1CCCCN1c1cc(-c2ccc3c(N)n[nH]c3c2)nc(N)n1  FALSE
14  CC[C@@H]1COCCN1c1cc(-c2ccc3c(N)n[nH]c3c2)nc(N)n1  FALSE
15  CC(C)(C)OC(=O)N[C@@H]1CCCN(c2cc(-c3ccc4c(N)n[nH]c4c3)nc(N)n2)C1  FALSE
16  CC[C@@H]1CO[C@H](C(=O)NC2CCCCC2)CN1c1cc(-c2ccc3c(N)n[nH]c3c2)nc(NC)n1  FALSE
17  Nc1nc(-c2ccc3c(N)n[nH]c3c2)cc(N2CCO[C@@H](C(=O)Nc3ccccc3)C2)n1  FALSE
18       CNc1cc(-c2ccc3c(N)n[nH]c3c2)nc(N)n1  FALSE
19  C[C@@H]1C[C@@H](N(C)C(=O)OC(C)(C)C)CN(c2cc(-c3ccc4c(N)n[nH]c4c3)nc(N)n2)C1   TRUE

* * *

biological target: Rho-associated protein kinase 1 (Homo sapiens, UniProt Q13464)
Sequence (Q13464 whole entry): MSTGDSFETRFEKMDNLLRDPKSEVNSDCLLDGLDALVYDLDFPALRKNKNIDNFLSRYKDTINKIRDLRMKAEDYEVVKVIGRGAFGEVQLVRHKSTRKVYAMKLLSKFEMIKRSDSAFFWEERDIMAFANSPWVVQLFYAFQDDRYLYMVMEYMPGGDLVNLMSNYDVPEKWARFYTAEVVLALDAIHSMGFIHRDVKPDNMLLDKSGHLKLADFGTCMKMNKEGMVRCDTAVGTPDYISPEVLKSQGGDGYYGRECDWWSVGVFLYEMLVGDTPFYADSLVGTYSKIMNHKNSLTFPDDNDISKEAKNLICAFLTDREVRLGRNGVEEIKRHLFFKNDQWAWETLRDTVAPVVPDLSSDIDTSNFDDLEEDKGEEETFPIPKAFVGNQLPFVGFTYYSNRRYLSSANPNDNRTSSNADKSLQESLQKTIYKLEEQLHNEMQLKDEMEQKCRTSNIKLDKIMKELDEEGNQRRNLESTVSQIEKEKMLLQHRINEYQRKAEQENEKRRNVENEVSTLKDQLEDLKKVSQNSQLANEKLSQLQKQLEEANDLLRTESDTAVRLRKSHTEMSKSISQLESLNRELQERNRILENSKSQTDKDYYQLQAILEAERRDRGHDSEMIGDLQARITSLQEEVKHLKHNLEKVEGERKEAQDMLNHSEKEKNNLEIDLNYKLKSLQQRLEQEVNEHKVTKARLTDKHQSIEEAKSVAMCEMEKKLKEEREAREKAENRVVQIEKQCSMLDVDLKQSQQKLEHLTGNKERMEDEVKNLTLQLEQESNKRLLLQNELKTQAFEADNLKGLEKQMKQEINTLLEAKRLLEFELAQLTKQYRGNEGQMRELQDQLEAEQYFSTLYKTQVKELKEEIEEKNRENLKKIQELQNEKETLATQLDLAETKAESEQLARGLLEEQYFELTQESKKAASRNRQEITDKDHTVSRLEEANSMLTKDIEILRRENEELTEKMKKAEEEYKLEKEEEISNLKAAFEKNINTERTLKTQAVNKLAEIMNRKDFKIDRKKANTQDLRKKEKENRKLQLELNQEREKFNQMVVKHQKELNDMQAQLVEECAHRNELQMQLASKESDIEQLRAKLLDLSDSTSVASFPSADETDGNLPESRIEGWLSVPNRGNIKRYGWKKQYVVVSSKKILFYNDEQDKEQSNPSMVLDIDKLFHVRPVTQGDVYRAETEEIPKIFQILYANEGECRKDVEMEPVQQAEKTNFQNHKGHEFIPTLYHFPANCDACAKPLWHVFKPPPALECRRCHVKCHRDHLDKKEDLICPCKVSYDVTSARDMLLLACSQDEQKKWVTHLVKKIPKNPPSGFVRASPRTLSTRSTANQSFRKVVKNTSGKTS
pIC50: −log10 of the molar value.
property_name: pIC50

> print(dat)
                                 smiles.repr  property.name  endpoint.result
 1  C[C@@H]1C[C@@H](N(C)C(=O)CC(C)(C)C)CN(c2cc(-c3ccc4c(N)n[nH]c4c3)nc(N)n2)C1          pIC50           < 5.00
 2  C[C@@H]1CC[C@H](C(=O)Nc2ccccc2)CN1c1cc(-c2ccc3c(N)[nH]nc3c2)nc(N)n1          pIC50             6.70
 3  Nc1nc(-c2ccc3c(N)[nH]nc3c2)cc(N2CCO[C@H](C(=O)Nc3ccccc3)C2)n1          pIC50             6.10
 4  C[C@@H]1CC[C@H](NC(=O)OC(C)(C)C)CN1c1cc(-c2ccc3c(N)n[nH]c3c2)nc(N)n1          pIC50           < 5.00
 5  C[C@@H]1C[C@@H](N(C)C(=O)OC(C)(C)C)CN(c2cc(-c3ccc4c(N)n[nH]c4c3)nc(N)n2)C1          pIC50           < 5.00
 6  Nc1nc(-c2ccc3c(N)n[nH]c3c2)cc(N2CCC[C@@H](C(=O)Nc3ccccc3)C2)n1          pIC50             5.50
 7  C[C@@H]1C[C@@H](NC(=O)OC(C)(C)C)CN(c2cc(-c3ccc4c(N)[nH]nc4c3)nc(N)n2)C1          pIC50           < 5.00
 8  CC(C)(C)OC(=O)N[C@H]1CCCN(c2cc(-c3ccc4c(N)n[nH]c4c3)nc(N)n2)C1          pIC50           < 5.00
 9  CC[C@@H]1CO[C@H](C(=O)Nc2ccccc2)CN1c1cc(-c2ccc3c(N)n[nH]c3c2)nc(NC)n1          pIC50             5.50
10  Nc1nc(-c2ccc3c(N)n[nH]c3c2)cc(N2CCCC2)n1          pIC50           < 5.00
11  Nc1nc(-c2ccc3c(N)n[nH]c3c2)cc(N2CCCCC2)n1          pIC50           < 5.00
12  CC[C@@H]1CO[C@H](C(=O)NC2CCCCC2)CN1c1cc(-c2ccc3c(N)n[nH]c3c2)nc(NC)n1          pIC50           < 5.00
13  Nc1nc(NC2CCCC2)cc(-c2ccc3c(N)n[nH]c3c2)n1          pIC50             5.20
14  CC(C)(C)OC(=O)N[C@@H]1CCCN(c2cc(-c3ccc4c(N)n[nH]c4c3)nc(N)n2)C1          pIC50           < 5.00
15       CNc1cc(-c2ccc3c(N)n[nH]c3c2)nc(N)n1          pIC50             5.10
16  C[C@@H]1CCCCN1c1cc(-c2ccc3c(N)n[nH]c3c2)nc(N)n1          pIC50           < 5.00
17  C[C@@H]1CO[C@H](C(=O)Nc2ccccc2)CN1c1cc(-c2ccc3c(N)n[nH]c3c2)nc(N)n1          pIC50             6.80
18    CN(C)c1cc(-c2ccc3c(N)n[nH]c3c2)nc(N)n1          pIC50           < 5.00
19   CC(C)Nc1cc(-c2ccc3c(N)n[nH]c3c2)nc(N)n1          pIC50           < 5.00

* * *

target: 3-phosphoinositide-dependent protein kinase 1 (Homo sapiens, UniProt O15530); assay: Inhibition of PDK1-mediated RSK phosphorylation at Ser221 residue in human PC3 cells by ELISA; format: cell-based, PC-3
Sequence (O15530 whole entry): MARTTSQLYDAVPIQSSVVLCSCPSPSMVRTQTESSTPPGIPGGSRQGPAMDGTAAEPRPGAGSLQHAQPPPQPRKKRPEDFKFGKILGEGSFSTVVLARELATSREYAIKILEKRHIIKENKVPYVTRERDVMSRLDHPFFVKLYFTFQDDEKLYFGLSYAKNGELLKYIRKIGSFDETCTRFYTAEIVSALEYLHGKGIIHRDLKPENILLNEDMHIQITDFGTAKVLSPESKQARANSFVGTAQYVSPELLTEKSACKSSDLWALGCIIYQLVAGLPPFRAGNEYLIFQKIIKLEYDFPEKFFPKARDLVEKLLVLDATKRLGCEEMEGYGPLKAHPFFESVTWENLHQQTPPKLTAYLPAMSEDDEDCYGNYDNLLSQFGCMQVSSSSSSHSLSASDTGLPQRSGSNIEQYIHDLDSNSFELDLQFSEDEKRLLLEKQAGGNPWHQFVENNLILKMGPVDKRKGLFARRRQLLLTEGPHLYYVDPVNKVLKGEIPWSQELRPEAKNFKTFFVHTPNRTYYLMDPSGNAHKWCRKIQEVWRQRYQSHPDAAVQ
pIC50: −log10 of the molar value.
property_name: pIC50

> print(dat)
                                smiles.repr  endpoint.result
1  CNc1nc(-c2ccc3c(N)n[nH]c3c2)cc(N2C[C@@H](C(=O)NC3CCCCC3)OC[C@H]2C)n1             7.52
2  CC[C@@H]1CO[C@H](C(=O)Nc2ccccc2)CN1c1cc(-c2ccc3c(N)n[nH]c3c2)nc(NC)n1             7.06
3  C[C@@H]1CC[C@H](C(=O)NC2CCCCC2)CN1c1cc(-c2ccc3c(N)n[nH]c3c2)nc(N)n1             6.50
4  CNc1nc(-c2ccc3c(N)n[nH]c3c2)cc(N2C[C@@H](C(=O)Nc3ccccc3)CC[C@H]2C)n1             6.18
5  CC[C@@H]1CO[C@H](C(=O)NC2CCCCC2)CN1c1cc(-c2ccc3c(N)n[nH]c3c2)nc(NC)n1             6.99
6  C[C@@H]1C[C@@H](N(C)C(=O)OC(C)(C)C)CN(c2cc(-c3ccc4c(N)n[nH]c4c3)nc(N)n2)C1             7.72
7  C[C@@H]1C[C@@H](N(C)C(=O)CC(C)(C)C)CN(c2cc(-c3ccc4c(N)n[nH]c4c3)nc(N)n2)C1             6.94

* * *

experiment: AUC in SCID mouse xenografted with human OCI-AML-2 cells at 100 mg/kg, ip administered as a single dose by LC/MS/MS analysis; type: ADME, organism-based; set-up: dose 100 mg/kg, route intraperitoneal; conditions: in vivo
property_name: AUC (ng·h/mL)

> print(dat)
                                smiles.repr  units.symbol  endpoint.result
1  CNc1nc(-c2ccc3c(N)n[nH]c3c2)cc(N2C[C@@H](C(=O)NC3CCCCC3)CC[C@H]2C)n1       ng·h/mL            31400

* * *

pIC50: −log10 of the molar value.
// each record: one item and its pIC50 for Aurora kinase B (Homo sapiens, UniProt Q96GD4)
property_name: pIC50

> print(dat)
                                   molecule  value.qualifier  endpoint.result
1  Nc1nc(-c2ccc3c(N)n[nH]c3c2)cc(N2CCC[C@H](C(=O)NC3CCCC3)C2)n1                <             5.00
2  Nc1nc(-c2ccc3c(N)[nH]nc3c2)cc(N2CCOCC2)n1                <             5.00
3  C[C@@H]1CC[C@@H](C(=O)Nc2ccccc2)CN1c1cc(-c2ccc3c(N)n[nH]c3c2)nc(N)n1 (racemic)                =             5.70
4  Nc1nc(-c2ccc3c(N)n[nH]c3c2)cc(N2CCC[C@H](C(=O)NC3CCCCC3)C2)n1                =             5.40
5  Nc1nc(-c2ccc3c(N)n[nH]c3c2)cc(N2CCC[C@@H](C(=O)Nc3ccccc3)C2)n1                =             5.80
6  CC[C@@H]1CO[C@H](C(=O)NC2CCCCC2)CN1c1cc(-c2ccc3c(N)n[nH]c3c2)nc(NC)n1                =             5.80
7  Nc1nc(-c2ccc3c(N)n[nH]c3c2)cc(N2CCCC(NC(=O)c3ccccc3)C2)n1 (racemic)                =             7.60
8  Nc1nc(NC2CCCC2)cc(-c2ccc3c(N)n[nH]c3c2)n1                =             5.10
